Values compiled from patent US7579356B2.

experimental-system: EGFR (Homo sapiens, UniProt P00533)
Construct: The intracellular portion of EGFR started at nucleotide 2189 (corresponding to amino acid 667) and ended at the termination codon; made in house; host or cells: Sf9 insect cells (baculovirus)
Sequence (P00533 669-1210 limits assumed): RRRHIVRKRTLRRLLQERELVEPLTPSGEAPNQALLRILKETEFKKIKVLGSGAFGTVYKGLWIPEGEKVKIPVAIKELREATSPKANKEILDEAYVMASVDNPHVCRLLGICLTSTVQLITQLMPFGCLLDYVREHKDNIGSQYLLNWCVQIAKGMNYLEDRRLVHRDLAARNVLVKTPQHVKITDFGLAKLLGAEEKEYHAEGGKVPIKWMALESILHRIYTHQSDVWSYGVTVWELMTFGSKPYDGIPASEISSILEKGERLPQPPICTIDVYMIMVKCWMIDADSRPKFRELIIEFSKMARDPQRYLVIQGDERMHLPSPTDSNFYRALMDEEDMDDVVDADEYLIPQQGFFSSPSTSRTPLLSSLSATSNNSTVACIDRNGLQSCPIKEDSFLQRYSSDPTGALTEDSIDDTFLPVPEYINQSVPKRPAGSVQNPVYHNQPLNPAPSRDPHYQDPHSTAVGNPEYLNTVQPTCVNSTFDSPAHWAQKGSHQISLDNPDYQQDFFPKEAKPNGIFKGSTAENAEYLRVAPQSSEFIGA
experiment-description: EGFR Kinase Assay
Assay type: biochemical
protocol-conditions: test concentration of 2 μM; compounds without an IC50; read-out: EGFR inhibition in percent
Experimental: The EGFR kinase used was a fusion of Glutathione-S-Transferase (GST) and a PCR amplified intracellular portion of EGFR (Accession Number NM_005228). […] The plates were incubated at 30° C. for 1 hr with shaking. […] The plates were then sealed and read on the TopCount scintillation counter. Test compounds were assayed in triplicate at 16 concentrations at half-log dilutions starting at 200 uM. A maximum and minimum signal for the assay was determined on each plate. […]
Each record gets a class by inhibition at 2 µM: small value (below 20%), mid value (20% to below 40%), large value (40% or more)

Example entries and their recorded answers appear below.
compound	experimental-system	discrete-label
COc1cc(N2C(=O)Nc3c(C(=O)Nc4ccc(CN5CCOCC5)cc4)sc4ncnc2c34)c(Cl)cc1Cl	EGFR (Homo sapiens, UniProt P00533)	mid value
COc1ccc(Cl)cc1N1C(=O)Nc2c(C(=O)Nc3ccc(CN(C)C[C@H]4CCCO4)cc3)sc3ncnc1c23	EGFR (Homo sapiens, UniProt P00533)	large value
Cc1cccc(Cl)c1N1C(=O)Nc2c(C(=O)Nc3ccc(CN4CCCCC4)cc3)sc3ncnc1c23	EGFR (Homo sapiens, UniProt P00533)	large value
COc1cc(N2C(=O)Nc3c(C(=O)Nc4ccc(CN5CCCC5)cc4)sc4ncnc2c34)c(Cl)cc1Cl	EGFR (Homo sapiens, UniProt P00533)	large value
COc1cc(N2C(=O)Nc3c(C(=O)Nc4ccc(CN5CCN(C)CC5)cc4)sc4ncnc2c34)ccc1Br	EGFR (Homo sapiens, UniProt P00533)	mid value
Cc1cccc(Cl)c1N1C(=O)Nc2c(C(=O)Nc3ccc(CN4CCOCC4)cc3)sc3ncnc1c23	EGFR (Homo sapiens, UniProt P00533)	mid value
CCOC(=O)c1sc2ncnc3c2c1NC(=O)N3c1ccc(C)c(Br)c1	EGFR (Homo sapiens, UniProt P00533)	small value
COc1ccc(Cl)c(N2C(=O)Nc3c(C(=O)Nc4ccc(OC)c(OC)c4)sc4ncnc2c34)c1	EGFR (Homo sapiens, UniProt P00533)	mid value
CCOC(=O)c1sc2ncnc3c2c1NC(=O)N3c1ccc(OCc2ccco2)c(Cl)c1	EGFR (Homo sapiens, UniProt P00533)	small value
COc1cc(N2C(=O)Nc3c(C(=O)Nc4ccc(CN5CCCCC5)cc4)sc4ncnc2c34)cc(OC)c1OC	EGFR (Homo sapiens, UniProt P00533)	small value

Category of "COC(=O)c1sc2ncnc3c2c1NC(=O)N3c1c(Cl)ccc2c1OCO2" , please. mid value

Try this compound too: "COc1ccc(Cl)cc1N1C(=O)Nc2c(C(=O)Nc3ccc(CN4CCCCC4)cc3)sc3ncnc1c23" large value

Try this compound too: "O=C(O)c1sc2ncnc3c2c1NC(=O)N3c1cc(OCc2cccc(F)c2)c(Cl)cc1Cl" small value

Try this compound too: "COc1cc(N2C(=O)Nc3c(C(=O)N4CCCC4)sc4ncnc2c34)c(Cl)cc1Cl" small value

Try this compound too: "O=C(Nc1ccc(CN2CCC(F)(F)CC2)cc1)c1sc2ncnc3c2c1NC(=O)N3c1ccc(Oc2ccccc2)cc1" large value

Try this compound too: Cc1cccc(Cl)c1N1C(=O)Nc2c(C(=O)Nc3ccc(C(O)CN4CCOCC4)cc3)sc3ncnc1c23 (stereo not shown) mid value

---

experimental-system: EGFR (Homo sapiens, UniProt P00533)
Construct: The intracellular portion of EGFR started at nucleotide 2189 (corresponding to amino acid 667) and ended at the termination codon; made in house; host or cells: Sf9 insect cells (baculovirus)
experiment-description: EGFR Kinase Assay
Assay type: biochemical
protocol-conditions: test concentration of 2 μM; compounds without an IC50; read-out: EGFR inhibition in percent
Each entry below lists one item and its recorded inhibition at 2 µM value.
Quick note: give the figure in %, leave out the unit.

The examples below pair each entry with its known result.
smiles-data	experimental-system	readout-type	measurement-unit	reported
O=C(NCc1ccco1)c1sc2ncnc3c2c1NC(=O)N3c1ccc(N2CCOCC2)cc1	EGFR (Homo sapiens, UniProt P00533)	inhibition at 2 µM	%	0.5
COc1cc(N2C(=O)Nc3c(C(=O)O)sc4ncnc2c34)cc(OC)c1OC	EGFR (Homo sapiens, UniProt P00533)	inhibition at 2 µM	%	-3

What value of measured inhibition at 2 µM is listed for "O=C(Nc1ccc(CN2CCCCC2)cc1)c1sc2ncnc3c2c1NC(=O)N3c1ccc(N2CCOCC2)cc1" ? 9

Try this molecule too: "CC(C)(C)OC(=O)N1CCC(NC(=O)c2sc3ncnc4c3c2NC(=O)N4c2ccc(N3CCOCC3)cc2)CC1" 3

Try this molecule too: "C[C@H](c1ccccc1)N1C(=O)Nc2c(C(=O)O)sc3ncnc1c23" 11

Try this molecule too: "O=C(Nc1ccc(CN2CCCCC2)cc1)c1sc2ncnc3c2c1NC(=O)N3c1ccc(-c2ccc(Cl)cc2)cc1" 18

Try this molecule too: "O=C(Nc1ccc(CN2CCCC2)cc1)c1sc2ncnc3c2c1NC(=O)N3c1cc(OCc2cccc(F)c2)c(Cl)cc1Cl" 14

Try this molecule too: "O=C(Nc1ccc(N2C(=O)Nc3c(C(=O)Nc4ccc(CN5CCCCC5)cc4)sc4ncnc2c34)cc1)c1ccccc1" 9

---

experimental-system: EGFR (Homo sapiens)
Construct: The intracellular portion of EGFR started at nucleotide 2189 (corresponding to amino acid 667) and ended at the termination codon; made in house; host or cells: Sf9 insect cells (baculovirus)
experiment-description: EGFR Kinase Assay
Assay type: biochemical
protocol-conditions: GST-EGFR, ATP 5 μM
Each entry below lists one item and its recorded pIC50 value.
Field pIC50 (float): negative decimal logarithm of the concentration in molar.

What value of measured pIC50 is listed for O=C(Nc1ccc(CN2CCC(CO)CC2)cc1)c1sc2ncnc3c2c1NC(=O)N3c1ccc(Oc2ccccc2)cc1 [Cpd 254] ? 7.59

Try this compound too: O=C(O)c1sc2ncnc3c2c1NC(=O)N3c1ccc2c(cnn2Cc2cccc(F)c2)c1 [Cpd 79] 6.52

Try this compound too: O=C(Nc1ccc(CCN2CCCCC2)cc1)c1sc2ncnc3c2c1NC(=O)N3c1ccc(Oc2ccccc2)c(Cl)c1 [Cpd 136] 7.51

Try this compound too: O=C1Nc2csc3ncnc(c23)N1c1ccc2c(ccn2Cc2cccc(F)c2)c1 [Cpd 152] 6.48

---

System: HCT-116 colon carcinoma
experiment-description: Cell Proliferation Inhibition Assay, HCT-116 (14C-thymidine)
Assay type: cell-based
protocol-conditions: Homo sapiens, HCT-116 cell proliferation
readout-type: IC50
Give your result as the value with the unit written after it.

smiles-data	IC50
O=C(Nc1ccc(N2CCOCC2)cc1)c1sc2ncnc3c2c1NC(=O)N3c1ccc2c(ccn2Cc2cccc(F)c2)c1	100 µM
Cc1ccc(N2C(=O)Nc3c(C(=O)NC4CCN(C)CC4)sc4ncnc2c34)cc1Br	10 µM
Cc1ccc(Br)cc1N1C(=O)Nc2c(C(=O)Nc3ccc(CN4CCOCC4)cc3)sc3ncnc1c23	10 µM
CCOC(=O)c1sc2ncnc3c2c1NC(=O)N3c1ccc(Oc2ccc(F)cc2)cc1	100 µM
CC(C)(C)OC(=O)N1CCC(NC(=O)c2sc3ncnc4c3c2NC(=O)N4c2ccc3c(ccn3Cc3cccc(F)c3)c2)CC1	10 µM
O=C(O)c1sc2ncnc3c2c1NC(=O)N3c1ccc2c(cnn2Cc2cccc(F)c2)c1	100 µM
Cc1ccc(Br)cc1N1C(=O)Nc2c(C(=O)NC3CCN(C)CC3)sc3ncnc1c23	100 µM

Shifting focus to the compound that follows.
What value of measured IC50 is listed for "O=C(Nc1ccc(CN2CCCCC2)cc1)c1sc2ncnc3c2c1NC(=O)N3c1ccc2c(ccn2Cc2cccc(F)c2)c1" ? 3.69 µM

---

Each entry below lists one item and its recorded inhibition at 2 µM value.
experimental-system: c-Src kinase (human) (Homo sapiens, UniProt P12931)
Construct: purchased Upstate Biotechnology, Lake Placid, N.Y
Sequence (P12931 whole entry): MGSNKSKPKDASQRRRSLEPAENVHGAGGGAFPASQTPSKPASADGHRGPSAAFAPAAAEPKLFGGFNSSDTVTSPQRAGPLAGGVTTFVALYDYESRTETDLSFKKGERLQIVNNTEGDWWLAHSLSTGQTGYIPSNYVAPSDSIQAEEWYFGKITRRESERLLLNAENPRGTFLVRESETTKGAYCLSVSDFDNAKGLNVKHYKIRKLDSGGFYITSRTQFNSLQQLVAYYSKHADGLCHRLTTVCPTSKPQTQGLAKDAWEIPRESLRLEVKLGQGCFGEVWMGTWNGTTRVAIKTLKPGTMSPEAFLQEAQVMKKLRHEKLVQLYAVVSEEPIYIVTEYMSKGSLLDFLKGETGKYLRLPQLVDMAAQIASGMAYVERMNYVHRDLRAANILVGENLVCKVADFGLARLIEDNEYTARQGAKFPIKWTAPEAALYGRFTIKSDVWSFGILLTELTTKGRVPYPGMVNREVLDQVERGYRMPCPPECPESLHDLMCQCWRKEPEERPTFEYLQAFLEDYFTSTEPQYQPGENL
experiment-description: c-Src Kinase Assay
Type: biochemical
protocol-conditions: test concentration of 2 μM; multiple values are separate assay results
Protocol: A mixture of a 10× kinase buffer (80 mM MOPS at pH 7.0, 2 mM EDTA and 100 mM Magnesium Chloride), ATP (5 μM final from a 10 mM stock), a Cdc2 peptide KVEKIGEGTYGVVYK (100 μM final from a 2.5 mM stock), γ-^33P ATP (10 μCl/μL stock) and water (for a total of 20 μL/well) was added to each well of a Streptavidin Flashplate. Test compound in 100% DMSO (0.5 μL) was added to the appropriate wells. […]
Quick note: give the figure in %, leave out the unit.

compound	inhibition at 2 µM / %
O=C(Nc1ccc(CCN2CCCCC2)cc1)c1sc2ncnc3c2c1NC(=O)N3c1ccc(Oc2cccc(F)c2)cc1	32
O=C(Nc1ccc(CN2CCCCC2)cc1)c1sc2ncnc3c2c1NC(=O)N3c1ccccc1Cl	52

Checklist item: inhibition at 2 µM tested on c-Src kinase (human) (Homo sapiens, UniProt P12931), entry "COc1cc(NC(=O)c2sc3ncnc4c3c2NC(=O)N4c2cc(OCc3cccc(F)c3)c(Cl)cc2Cl)ccc1OCCN1CCCCC1" , value? -22

Try this compound too: "O=C(Nc1ccc(CN2CCOCC2)cc1)c1sc2ncnc3c2c1NC(=O)N3c1ccc(Oc2ccc(F)cc2)cc1" 16

Try this compound too: "O=C(Nc1ccc(CN2CCOCC2)cc1)c1sc2ncnc3c2c1NC(=O)N3c1ccccc1Cl" 54

Try this compound too: COc1cc(NC(=O)c2sc3ncnc4c3c2NC(=O)N4c2cc(OC)c(OC)c(OC)c2)ccc1OCC1CCCCO1 (stereo not shown) 8

Try this compound too: "O=C(Nc1ccc(CN2CCCCC2)cc1)c1sc2ncnc3c2c1NC(=O)N3c1ccc(F)cc1Cl" 50

Try this compound too: "O=C(Nc1ccc(CN2CCOCC2)cc1)c1sc2ncnc3c2c1NC(=O)N3c1ccc(Cc2ccccc2)cc1" 29

Try this compound too: "COc1ccc(N2C(=O)Nc3c(C(=O)Nc4ccc(CN5CCOCC5)cc4)sc4ncnc2c34)cc1Cl" -9
